# Test system: CYP2B6
# Assay Summary: CYP2B6 enzyme induction assay in cryopreserved primary human hepatocytes (PHH);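 note: code 1 means positive inducer and 0 means non-inducer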
# Assay type: in vitro ADME
# Measurement Setup: PHH; Lab 1; batch 4 0 8
Readout Label: Assigned classification CYP2B6

[[record]]
molecule = "CO[C@H]1/C=C/O[C@@]2(C)Oc3c(C)c(O)c4c(c3C2=O)C2=NC3(CCN(CC(C)C)CC3)NC2=C(NC(=O)/C(C)=C\\C=C\\[C@H](C)[C@H](O)[C@@H](C)[C@@H](O)[C@@H](C)[C@H](OC(C)=O)[C@@H]1C)C4=O"
observed_measurement = 0


a = COCCc1ccc(OCC(O)CNC(C)C)cc1 (stereo not drawn)
b = COc1ccccc1Oc1c(NS(=O)(=O)c2ccc(C(C)(C)C)cc2)nc(-c2ncccn2)nc1OCCO [Bosentan hydrate]
## Task I need your help: which of the pair a , b has higher Assigned classification CYP2B6? Give the chosen item's label as your response.
## Result b
(b: 1, a: 0)

Cited source for all entries: paper PMC6718736
